Target: P. falciparum apicoplast DNA polymerase (Pf-apPOL) (Plasmodium falciparum, UniProt Q8ILY1)
Sequence (Q8ILY1 entry or part of it): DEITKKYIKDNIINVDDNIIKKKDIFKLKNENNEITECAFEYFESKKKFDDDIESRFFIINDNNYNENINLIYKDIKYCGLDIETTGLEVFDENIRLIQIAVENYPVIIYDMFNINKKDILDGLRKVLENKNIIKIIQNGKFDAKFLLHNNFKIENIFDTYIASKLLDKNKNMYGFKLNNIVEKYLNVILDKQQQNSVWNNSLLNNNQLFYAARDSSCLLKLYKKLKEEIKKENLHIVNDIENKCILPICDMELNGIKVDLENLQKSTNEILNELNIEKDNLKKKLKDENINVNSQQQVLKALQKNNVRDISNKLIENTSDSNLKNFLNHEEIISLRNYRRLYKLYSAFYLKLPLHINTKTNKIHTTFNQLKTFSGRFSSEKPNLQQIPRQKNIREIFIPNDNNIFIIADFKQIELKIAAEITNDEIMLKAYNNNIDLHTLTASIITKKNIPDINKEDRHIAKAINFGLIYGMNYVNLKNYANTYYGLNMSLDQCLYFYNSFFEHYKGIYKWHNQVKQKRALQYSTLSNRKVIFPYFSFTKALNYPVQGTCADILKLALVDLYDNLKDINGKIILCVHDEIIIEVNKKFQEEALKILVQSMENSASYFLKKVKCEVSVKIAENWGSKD
Experiment: Fluorescence-based high-throughput DNA polymerase assay (molecular beacon), primary screen and dose-response
Format: biochemical
Settings: DRC-1; 10'; concentration 10
Reported % inhibition Apo pol 10' is given for each of the following molecules.

Some entries whose results are on file:
| inputSmiles | % inhibition Apo pol 10' |
| --- | --- |
| Nc1c(S(=O)(=O)O)cc(Nc2ccccc2)c2c1C(=O)c1ccccc1C2=O | 57.4142% |
| COc1cccc(Oc2c(C(F)(F)F)oc3cc(OC(=O)N(C)C)ccc3c2=O)c1 | 26.9326% |
| COc1ccc(-c2n[nH]cc2Oc2ccc(Cl)cc2)c(O)c1 | 52.0762% |

Moving on to another molecule below.
Query block: Return the recorded % inhibition Apo pol 10' value; entry: `COCCN(CCOC)Cc1c(O)ccc2c1OC(=Cc1cc(Br)ccc1OC)C2=O`
Result block: 15.0312%

###

Molecular target: bacteriophage T4 DNA polymerase (Enterobacteria phage T4)
Construct: made in house
Sequence (P04415 1-898): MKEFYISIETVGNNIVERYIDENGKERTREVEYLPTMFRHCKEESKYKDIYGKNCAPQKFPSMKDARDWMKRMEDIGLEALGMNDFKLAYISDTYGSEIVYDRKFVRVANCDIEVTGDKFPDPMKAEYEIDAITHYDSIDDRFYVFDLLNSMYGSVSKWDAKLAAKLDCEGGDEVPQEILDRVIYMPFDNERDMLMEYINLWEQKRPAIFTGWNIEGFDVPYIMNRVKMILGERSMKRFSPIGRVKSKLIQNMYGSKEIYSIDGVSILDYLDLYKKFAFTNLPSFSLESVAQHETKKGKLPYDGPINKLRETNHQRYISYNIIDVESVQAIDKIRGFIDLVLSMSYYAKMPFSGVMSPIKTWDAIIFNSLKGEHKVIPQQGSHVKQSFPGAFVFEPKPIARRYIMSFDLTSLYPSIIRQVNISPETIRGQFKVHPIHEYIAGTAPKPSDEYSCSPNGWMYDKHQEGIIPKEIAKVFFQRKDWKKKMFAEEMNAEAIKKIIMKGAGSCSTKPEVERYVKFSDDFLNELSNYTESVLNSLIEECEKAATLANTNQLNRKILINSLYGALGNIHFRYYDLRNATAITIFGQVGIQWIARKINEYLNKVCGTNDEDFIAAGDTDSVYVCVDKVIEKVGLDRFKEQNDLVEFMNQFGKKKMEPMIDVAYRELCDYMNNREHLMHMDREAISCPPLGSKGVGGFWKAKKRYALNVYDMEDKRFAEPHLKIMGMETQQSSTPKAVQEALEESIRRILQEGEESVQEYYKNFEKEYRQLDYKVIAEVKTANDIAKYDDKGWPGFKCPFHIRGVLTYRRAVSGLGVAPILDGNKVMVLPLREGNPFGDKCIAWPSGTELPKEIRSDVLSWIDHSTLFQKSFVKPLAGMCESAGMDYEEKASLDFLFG
Test: Counter-screen against bacteriophage T4 DNA polymerase
Format: biochemical
Conditions: DRC-2; 90'; concentration 80
reportedEndpoint: % inhibition T4 90' (%)
State the answer as a number, implicitly in %.

Some entries whose results are on file:
| compound | units | % inhibition T4 90' |
| --- | --- | --- |
| Cc1ccc(-n2nnc(C(=O)O)c2-c2ccccn2)c(F)c1 | % | 22 |
| CC(=O)c1cc2c(N)c(/C(N)=N/C#N)sc2nc1C | % | -20 |
| COc1ccc(-c2cc3nc4c(c(=O)n3[nH]2)CCN(C(=O)CCc2ccccc2)C4)cc1 | % | -46 |
| CC1(C)CC(=O)C2=C(C1)OC1=C(C(=O)CC(C)(C)C1)C2c1ccc(O)cc1 | % | 30 |
| COc1ccc(-c2n[nH]cc2Oc2ccc(Cl)cc2)c(O)c1 | % | -34 |

Query block: Report value only: % inhibition T4 90', bacteriophage T4 DNA polymerase (Enterobacteria phage T4), `COc1ccc(C(=O)N2CCc3c(nc4cc(-c5ccccc5Cl)[nH]n4c3=O)C2)cn1`
Result block: -23

Query block: Report value only: % inhibition T4 90', bacteriophage T4 DNA polymerase (Enterobacteria phage T4), `Cc1ccc(NC(=O)C2CCN(C(=O)c3cc4ccsc4[nH]3)CC2)c(Br)c1`
Result block: 8

Query block: Report value only: % inhibition T4 90', bacteriophage T4 DNA polymerase (Enterobacteria phage T4), `COc1ccc(CNC(=O)Cn2nc3c(c2NC(=O)Cc2cccs2)CSC3)cc1`
Result block: 38

Query block: Report value only: % inhibition T4 90', bacteriophage T4 DNA polymerase (Enterobacteria phage T4), CCC(C)NC(=O)c1cc(NC(C)=O)cc2nc(C)ccc12 (centres unmarked)
Result block: 42

Query block: Report value only: % inhibition T4 90', bacteriophage T4 DNA polymerase (Enterobacteria phage T4), `CCOC(=O)C1=C2c3cc(OC)c(OC)cc3CC(C)(C)N2C(=O)C1=O`
Result block: 44

Query block: Report value only: % inhibition T4 90', bacteriophage T4 DNA polymerase (Enterobacteria phage T4), `Cc1cccc2c(C(=O)NC(C)C)cc(N(C)C)nc12`
Result block: 31

Query block: Report value only: % inhibition T4 90', bacteriophage T4 DNA polymerase (Enterobacteria phage T4), `O=[N+]([O-])c1ccc(/C=C/c2ccc3ccccc3n2)o1`
Result block: 37

Query block: Report value only: % inhibition T4 90', bacteriophage T4 DNA polymerase (Enterobacteria phage T4), `O=C(Nc1ccc2c(c1)Cc1cc(NC(=O)c3ccco3)ccc1-2)c1ccco1`
Result block: 35

Query block: Report value only: % inhibition T4 90', bacteriophage T4 DNA polymerase (Enterobacteria phage T4), `O=c1[nH]c2ccc([N+](=O)[O-])cc2c(-c2ccccc2)c1Sc1nc2ccccc2o1`
Result block: 48

###

Target: P. falciparum apicoplast DNA polymerase (Pf-apPOL) (Plasmodium falciparum)
Assay: Fluorescence-based high-throughput DNA polymerase assay (molecular beacon), primary screen and dose-response
Assay type: biochemical
Details: DRC-2; 5'; concentration 2.5
Reported % inhibition Apo pol 5' is given for each of the following compounds.
State the answer as a number, implicitly in %.

Some entries whose results are on file:
| compound | numericResult |
| --- | --- |
| O=C(Cn1ccc2c(=O)[nH]ccc21)Nc1ccc(Cl)cc1 [Molecule 36, O=C(Cn1ccc2c1cc[nH]c2=O)Nc1ccc(cc1)Cl] | 0 |
| O=C(NCC1CCN(C2CCCC2)CC1)C(=O)NC1CCCC1 [KU0199596] | 6 |
| COc1ccc2c(c1)C(c1ccccc1OC)CC(=O)O2 (stereo not drawn) [Molecule 38, COc1ccc2c(c1)C(CC(=O)O2)c1ccccc1OC] | 6.5 |
| O=c1nc(/C=C/c2ccc(Br)cc2)oc2ccccc12 [KU0052629] | 6 |
| COc1ccc(-c2n[nH]cc2Oc2ccc(Cl)cc2)c(O)c1 [KU0029837] | 15 |
| COc1ccc(C=C2Oc3c(ccc4c3CN(c3ccc5c(c3)OCO5)CO4)C2=O)cc1OC [KU0199426] | 6.46 |
| O=c1[nH]c2ccc([N+](=O)[O-])cc2c(-c2ccccc2)c1Sc1nc2ccccc2o1 [KU0067471] | 9 |
| O=C(CSc1nc2ccccc2s1)Nc1ncc([N+](=O)[O-])s1 [KU0019667] | 0.175 |
| CCCCCc1c2c(cc(O)c1C(=O)O)OC(=O)c1c(cc(OC)cc1C(=O)CCCC)O2 [Molecule 24] | 11 |
| CC(=O)Nc1cc(C(=O)NC(C)C)c2ccc(C)nc2c1 [KU0206312] | 8 |

Query block: Report value only: % inhibition Apo pol 5', P. falciparum apicoplast DNA polymerase (Pf-apPOL) (Plasmodium falciparum), O=C(Nc1cccc(C(=O)Nc2ccc(S(=O)(=O)[O-])c3cc(S(=O)(=O)[O-])cc(S(=O)(=O)[O-])c23)c1)Nc1cccc(C(=O)Nc2ccc(S(=O)(=O)[O-])c3cc(S(=O)(=O)[O-])cc(S(=O)(=O)[O-])c23)c1.[Na+].[Na+].[Na+].[Na+].[Na+].[Na+] [Molecule 39]
Result block: 12

Query block: Report value only: % inhibition Apo pol 5', P. falciparum apicoplast DNA polymerase (Pf-apPOL) (Plasmodium falciparum), Cc1ccc(C(=O)/C=C/C=C/C=C/N(C)C)o1 [Molecule 96, CN(/C=C/C=C/C=C/C(=O)c1ccc(o1)C)C]
Result block: 1.29

Query block: Report value only: % inhibition Apo pol 5', P. falciparum apicoplast DNA polymerase (Pf-apPOL) (Plasmodium falciparum), COc1ccc(NC(=O)Cn2ccc3c(=O)[nH]ccc32)cc1Cl [Molecule 10, COc1ccc(cc1Cl)NC(=O)Cn1ccc2c1cc[nH]c2=O]
Result block: 22

###

Molecular target: P. falciparum apicoplast DNA polymerase (Pf-apPOL) (Plasmodium falciparum)
Assay: Fluorescence-based high-throughput DNA polymerase assay (molecular beacon), primary screen and dose-response
Format: biochemical
Conditions: DRC-2; 90'; concentration 5
Source text: The HT assay employs a molecular beacon, a stem-loop DNA template with a Cy3 dye and the Black Hole Quencher on the 3′ and 5′ ends of the DNA, respectively. Pf-apPOL concentration is based on a calculated absorptivity of ε280 = 56750 M^−1 cm^−1. […] To identify apPOL inhibitors we utilised our previously developed high-throughput DNA polymerase assay. […] The assay accurately recapitulates the kinetic behaviour of apPOL, as measured through more conventional low-throughput gel-based assays. […]
reportedEndpoint: % inhibition ApPOL 90' (%)
State the answer as a number, implicitly in %.

| inputSmiles | % inhibition ApPOL 90' / % |
| --- | --- |
| COc1ccc(-c2c(C(F)(F)F)nn3c(=O)cc(-c4cccc([N+](=O)[O-])c4)[nH]c23)cc1 | 14 |
| CC(=O)Nc1cc(C(=O)c2cccs2)nn(-c2ccc(Cl)cc2)c1=O | 4 |
| O=C(CSc1nnc(-c2ccncc2)[nH]1)c1ccc(O)c(O)c1 | 62 |

Moving on to another compound below.
Query block: Return the recorded % inhibition ApPOL 90' value; entry: `Cc1ccc(C)c(CSc2nc(C3CCCCC3)c(C#N)c(=O)[nH]2)c1`
Result block: 16

All values here come from paper PMC9090415.
